# ASSAY TARGET: Neurogenic locus notch homolog protein 2 (Homo sapiens) (UniProt Q04721)
# Sequence (Q04721 whole entry, looked up): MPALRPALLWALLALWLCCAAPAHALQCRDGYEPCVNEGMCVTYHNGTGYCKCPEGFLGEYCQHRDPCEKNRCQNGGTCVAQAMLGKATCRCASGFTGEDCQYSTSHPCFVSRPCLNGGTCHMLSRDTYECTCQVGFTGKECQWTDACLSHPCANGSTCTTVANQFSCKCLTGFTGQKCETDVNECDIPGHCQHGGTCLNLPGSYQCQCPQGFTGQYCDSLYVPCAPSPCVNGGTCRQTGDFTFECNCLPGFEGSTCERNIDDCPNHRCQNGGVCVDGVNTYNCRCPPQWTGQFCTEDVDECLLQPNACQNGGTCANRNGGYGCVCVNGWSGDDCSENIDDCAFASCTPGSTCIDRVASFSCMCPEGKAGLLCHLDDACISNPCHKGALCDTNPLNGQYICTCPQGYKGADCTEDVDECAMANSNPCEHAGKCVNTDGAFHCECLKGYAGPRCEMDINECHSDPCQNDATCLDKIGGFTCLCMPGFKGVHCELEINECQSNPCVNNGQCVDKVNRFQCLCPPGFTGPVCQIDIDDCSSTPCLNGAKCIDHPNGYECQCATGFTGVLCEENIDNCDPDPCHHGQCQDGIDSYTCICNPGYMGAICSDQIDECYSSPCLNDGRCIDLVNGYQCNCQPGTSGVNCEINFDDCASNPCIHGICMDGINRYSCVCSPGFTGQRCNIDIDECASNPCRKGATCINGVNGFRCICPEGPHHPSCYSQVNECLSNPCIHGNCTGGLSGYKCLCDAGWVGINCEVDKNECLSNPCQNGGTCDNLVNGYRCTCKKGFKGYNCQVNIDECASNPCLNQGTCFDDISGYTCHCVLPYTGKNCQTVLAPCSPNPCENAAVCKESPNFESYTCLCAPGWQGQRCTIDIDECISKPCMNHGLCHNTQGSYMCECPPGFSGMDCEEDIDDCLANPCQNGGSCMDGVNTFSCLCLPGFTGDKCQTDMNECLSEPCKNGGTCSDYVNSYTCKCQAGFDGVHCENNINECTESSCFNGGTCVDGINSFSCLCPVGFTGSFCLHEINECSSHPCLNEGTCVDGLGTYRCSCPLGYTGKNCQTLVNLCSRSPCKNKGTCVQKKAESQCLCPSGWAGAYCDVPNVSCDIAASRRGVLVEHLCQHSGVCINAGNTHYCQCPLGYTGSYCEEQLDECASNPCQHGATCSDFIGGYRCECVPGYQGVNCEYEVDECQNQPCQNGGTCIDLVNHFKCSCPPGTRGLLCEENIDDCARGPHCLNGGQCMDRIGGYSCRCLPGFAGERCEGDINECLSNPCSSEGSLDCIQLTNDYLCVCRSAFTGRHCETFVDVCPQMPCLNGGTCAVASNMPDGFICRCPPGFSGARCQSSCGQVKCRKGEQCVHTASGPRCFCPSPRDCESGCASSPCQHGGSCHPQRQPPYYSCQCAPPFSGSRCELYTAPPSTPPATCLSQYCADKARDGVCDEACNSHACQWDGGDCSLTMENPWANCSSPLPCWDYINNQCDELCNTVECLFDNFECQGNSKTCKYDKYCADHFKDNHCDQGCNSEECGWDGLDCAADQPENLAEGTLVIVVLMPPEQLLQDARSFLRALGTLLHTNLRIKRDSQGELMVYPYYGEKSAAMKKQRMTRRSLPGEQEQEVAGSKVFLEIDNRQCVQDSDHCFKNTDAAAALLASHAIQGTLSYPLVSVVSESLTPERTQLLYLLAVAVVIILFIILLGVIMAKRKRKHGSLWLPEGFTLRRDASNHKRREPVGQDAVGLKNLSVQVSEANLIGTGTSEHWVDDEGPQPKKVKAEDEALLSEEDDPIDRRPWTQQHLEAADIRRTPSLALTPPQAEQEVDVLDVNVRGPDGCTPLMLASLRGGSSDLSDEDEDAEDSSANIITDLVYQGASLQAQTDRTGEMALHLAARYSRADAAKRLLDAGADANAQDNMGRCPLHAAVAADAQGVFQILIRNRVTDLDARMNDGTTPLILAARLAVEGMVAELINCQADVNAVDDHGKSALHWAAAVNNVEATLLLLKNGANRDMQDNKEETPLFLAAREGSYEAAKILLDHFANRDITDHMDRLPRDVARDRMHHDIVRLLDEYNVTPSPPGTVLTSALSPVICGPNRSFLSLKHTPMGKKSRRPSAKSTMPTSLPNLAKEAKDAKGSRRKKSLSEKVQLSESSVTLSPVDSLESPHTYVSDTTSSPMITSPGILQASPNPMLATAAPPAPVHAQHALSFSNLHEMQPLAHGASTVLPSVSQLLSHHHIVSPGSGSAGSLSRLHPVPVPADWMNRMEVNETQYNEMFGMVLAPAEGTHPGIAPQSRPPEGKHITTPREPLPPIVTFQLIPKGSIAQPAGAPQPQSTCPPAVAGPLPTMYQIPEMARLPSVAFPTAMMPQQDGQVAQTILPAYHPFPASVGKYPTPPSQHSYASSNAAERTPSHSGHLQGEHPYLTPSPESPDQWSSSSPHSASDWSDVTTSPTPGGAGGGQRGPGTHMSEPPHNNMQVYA
# ASSAY REMARKS: Notch2 binders on small-molecule microarrays, primary screen, biochemical, small-molecule microarray, 635 nm fluorescence, stem cell growth factors (AID 1073)
# CONDITIONS USED: Notch2 binding, higher = more signal
MEASURED METRIC: composite z-score

C[C@H]1C2[C@H](Cc3ccccc3)NC(=O)[C@]23C(=O)NCC(=O)N2CCC[C@H]2C(=O)NC/C=C\C/C=C/C3[C@@H]2O[C@]12C (some centres not stated)    0.726
C=C(/C(=C/C[C@@H](OC(C)=O)c1ccccc1OCCO)c1cc(C(=O)OC)ccc1OC)C(C)C    0.632
C=CCC(OC(C)=O)[C@@H]1[C@@H](N(Cc2ccc(-c3cccc(C(F)(F)F)c3)o2)C(=O)c2cccc3ccccc23)c2cc(OCCCO)ccc2N1C(=O)c1ccc2ccccc2n1 (some centres not stated)    -0.381
COCCCNC(=O)[C@@H]1c2ccccc2C(=O)N(Cc2cc(C(F)(F)F)cc(C(F)(F)F)c2)[C@H]1c1ccc(CO)cc1    -0.0254
C=CCC(OC(C)=O)[C@@H]1[C@@H](N(Cc2ccc(-c3cccc(C(F)(F)F)c3)o2)C(=O)c2cccc3ccccc23)c2cc(OCCCO)ccc2N1C(=O)c1ccc2ccccc2c1 (some centres not stated)    -0.365

Give the measured composite z-score of C=CCNC(=O)[C@@H]1[C@H]2C(=O)O[C@H](c3ccccc3)[C@H](c3ccccc3)N2[C@H](c2ccc(O)cc2)[C@@]12C(=O)Nc1ccc(C#CC3(O)CCCCCC3)cc12 .
0.469
